Test system: bronchial secretion
Test: Expectorant activity (bronchial secretion in anesthetized rabbits, Perry et al.)
Assay type: in vivo, rabbit
Details: 4 hours after oral administration, 20 to 40 mg
Result Type: Percentage variations ± s.e. of bronchial secretion versus basal values

Molecule: CCCCOC(=O)c1ccccc1OC(=O)CNC(=O)C(C)SC(=O)c1cccs1 (stereo not drawn)
Result: +1.9 ± 0.04%
//
Molecule: CC(=O)Nc1ccc(OC(=O)CNC(=O)C(C)SC(=O)c2cccs2)cc1 (stereo not drawn)
Result: +2.5 ± 0.07%
//
Molecule: CCCOC(=O)c1ccc(OC(=O)CNC(=O)C(C)SC(=O)c2cccs2)cc1 (stereo not drawn)
Result: +3.8 ± 0.06%
//
Molecule: CCOC(=O)c1ccccc1OC(=O)CNC(=O)C(C)SC(=O)c1cccs1 (stereo not drawn)
Result: +3.0 ± 0.04%
//
Molecule: COC(=O)c1ccccc1OC(=O)CNC(=O)C(C)SC(=O)c1cccs1 (stereo not drawn)
Result: +1.4 ± 0.08%
//
Molecule: CCCOC(=O)c1ccccc1OC(=O)CNC(=O)C(C)SC(=O)c1cccs1 (stereo not drawn)
Result: +3.2 ± 0.06%

* * *

Test system: bronchial secretion
Assay: Expectorant activity (bronchial secretion in anesthetized rabbits, Perry et al.)
Assay type: in vivo, rabbit
Conditions: 2 hours after oral administration, 20 to 40 mg
Result Type: Percentage variations ± s.e. of bronchial secretion versus basal values

Compound: CCCCOC(=O)c1ccccc1OC(=O)CNC(=O)C(C)SC(=O)c1cccs1 (stereo not drawn)
Result: +1.0 ± 0.06%
--
Compound: COC(=O)c1ccccc1OC(=O)CNC(=O)C(C)SC(=O)c1cccs1 (stereo not drawn)
Result: +0.9 ± 0.05%
--
Compound: CCCOC(=O)c1ccccc1OC(=O)CNC(=O)C(C)SC(=O)c1cccs1 (stereo not drawn)
Result: +1.7 ± 0.05%
--
Compound: CC(=O)Nc1ccc(OC(=O)CNC(=O)C(C)SC(=O)c2cccs2)cc1 (stereo not drawn)
Result: +1.2 ± 0.04%
--
Compound: CCCOC(=O)c1ccc(OC(=O)CNC(=O)C(C)SC(=O)c2cccs2)cc1 (stereo not drawn)
Result: +2.1 ± 0.01%
--
Compound: CCOC(=O)c1ccccc1OC(=O)CNC(=O)C(C)SC(=O)c1cccs1 (stereo not drawn)
Result: +1.9 ± 0.06%

* * *

Test system: cough-inducing irritation
Assay: Antitussive activity (citric acid aerosol induced cough)
Type: in vivo, guinea pig
Details: 200 mg/Kg orally, one hour before test; before vs. after treatment

Molecule: CCOC(=O)c1ccccc1OC(=O)CNC(=O)C(C)SC(=O)c1cccs1 (stereo not drawn)
% Inhibition of coughs / %: 52

Molecule: CC(=O)Nc1ccc(OC(=O)CNC(=O)C(C)SC(=O)c2cccs2)cc1 (stereo not drawn)
% Inhibition of coughs / %: 46

Molecule: CCCOC(=O)c1ccc(OC(=O)CNC(=O)C(C)SC(=O)c2cccs2)cc1 (stereo not drawn)
% Inhibition of coughs / %: 37

Molecule: CCCCOC(=O)c1ccccc1OC(=O)CNC(=O)C(C)SC(=O)c1cccs1 (stereo not drawn)
% Inhibition of coughs / %: 49

Molecule: CCCOC(=O)c1ccccc1OC(=O)CNC(=O)C(C)SC(=O)c1cccs1 (stereo not drawn)
% Inhibition of coughs / %: 49

Molecule: COC(=O)c1ccccc1OC(=O)CNC(=O)C(C)SC(=O)c1cccs1 (stereo not drawn)
% Inhibition of coughs / %: 49
